Provenance of the data: patent US20200262877A1

# target-entity: TRPA1 (Homo sapiens)
# Construct: host or cells: HEK293 or CHO
# Sequence (O75762 whole entry): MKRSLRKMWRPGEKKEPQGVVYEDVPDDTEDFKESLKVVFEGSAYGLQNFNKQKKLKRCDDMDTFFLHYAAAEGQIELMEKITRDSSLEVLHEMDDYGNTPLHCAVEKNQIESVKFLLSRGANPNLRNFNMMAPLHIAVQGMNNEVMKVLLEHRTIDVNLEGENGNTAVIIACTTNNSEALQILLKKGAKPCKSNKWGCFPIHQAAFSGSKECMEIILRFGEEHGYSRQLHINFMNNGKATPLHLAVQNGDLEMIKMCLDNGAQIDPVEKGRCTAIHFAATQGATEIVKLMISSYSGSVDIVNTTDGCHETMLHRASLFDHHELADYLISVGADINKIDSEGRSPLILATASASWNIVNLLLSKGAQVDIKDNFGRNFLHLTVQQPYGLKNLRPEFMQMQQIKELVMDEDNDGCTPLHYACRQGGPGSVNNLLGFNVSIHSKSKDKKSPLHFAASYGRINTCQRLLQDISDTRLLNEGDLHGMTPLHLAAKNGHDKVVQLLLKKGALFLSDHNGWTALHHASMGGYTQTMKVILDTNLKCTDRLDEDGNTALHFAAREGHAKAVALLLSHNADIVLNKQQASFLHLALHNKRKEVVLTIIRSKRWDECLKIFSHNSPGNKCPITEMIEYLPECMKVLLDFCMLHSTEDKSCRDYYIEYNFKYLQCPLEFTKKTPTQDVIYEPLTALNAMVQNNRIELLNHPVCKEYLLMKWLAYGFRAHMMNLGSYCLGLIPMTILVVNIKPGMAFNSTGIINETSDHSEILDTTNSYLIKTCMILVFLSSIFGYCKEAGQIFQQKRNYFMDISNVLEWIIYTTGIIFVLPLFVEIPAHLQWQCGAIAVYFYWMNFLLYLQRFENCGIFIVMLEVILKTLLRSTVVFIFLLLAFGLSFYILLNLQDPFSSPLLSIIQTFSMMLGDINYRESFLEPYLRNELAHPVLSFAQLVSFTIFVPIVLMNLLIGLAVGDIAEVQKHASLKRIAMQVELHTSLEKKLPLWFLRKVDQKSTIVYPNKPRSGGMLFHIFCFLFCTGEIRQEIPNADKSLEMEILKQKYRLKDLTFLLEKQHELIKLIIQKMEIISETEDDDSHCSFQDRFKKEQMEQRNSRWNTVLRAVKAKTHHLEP
# assay-text: Ion channel panel (IonWorks Barracuda): TRPA1
# Assay type: cell-based
# condition: peptide at 0.2 μM; 100% = no change, <100% = inhibition
# Experimental: This example describes a method for assaying ion channel activity in cells. Peptides were screened in duplicate at final concentrations of 20 μM and 200 nM, as determined by amino acid analysis, and diluted into HEPES buffered physiological saline (HBPS). HEK293 or CHO cells from the American Type Culture Collection (ATCC) were transfected with the appropriate ion channel before use. […]
measured-metric: Activity of TRPA1 with peptide, expressed as a percentage of the reference compound (%)

>  <substance>
21 (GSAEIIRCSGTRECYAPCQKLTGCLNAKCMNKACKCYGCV) [compound 21]

>  <units-label>
%

>  <recorded-measurement>
119

$$$$
>  <substance>
6 (GSVRIPVSCKHSGQCLKPCKDAGMRFGKCMNGKCDCTPK) [compound 6]

>  <units-label>
%

>  <recorded-measurement>
126

$$$$
>  <substance>
30 (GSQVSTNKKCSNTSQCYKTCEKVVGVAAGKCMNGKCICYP) [compound 30]

>  <units-label>
%

>  <recorded-measurement>
118

$$$$
>  <substance>
27 (GSACQFWSCNSSCISRGYRQGYCWGIQYKYCQCQ) [compound 27]

>  <units-label>
%

>  <recorded-measurement>
85

$$$$
>  <substance>
13 (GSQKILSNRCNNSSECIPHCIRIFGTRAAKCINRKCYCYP) [compound 13]

>  <units-label>
%

>  <recorded-measurement>
129

$$$$
